target: Sphingosine 1-phosphate receptor 3 (Homo sapiens) (UniProt Q99500); experiment: blockers of human S1PR3 signaling – cell-based, fluorescence, dose response, late-stage follow-up (AID 743434); details: S1P3-expressing cells, fluorescence antagonist assay
Sequence (Q99500 whole entry, looked up): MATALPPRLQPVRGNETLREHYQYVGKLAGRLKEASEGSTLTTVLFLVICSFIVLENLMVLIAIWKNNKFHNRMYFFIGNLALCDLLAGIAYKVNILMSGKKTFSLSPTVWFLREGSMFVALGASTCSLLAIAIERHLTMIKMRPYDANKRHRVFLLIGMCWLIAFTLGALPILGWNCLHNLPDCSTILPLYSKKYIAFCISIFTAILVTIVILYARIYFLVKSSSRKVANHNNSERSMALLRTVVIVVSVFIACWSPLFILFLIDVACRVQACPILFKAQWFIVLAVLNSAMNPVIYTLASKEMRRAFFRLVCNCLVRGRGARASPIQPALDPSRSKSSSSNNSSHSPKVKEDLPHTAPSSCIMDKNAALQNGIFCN
The source made the active and inactive calls. No rule for the calls is given here.
Respond using exactly one of the listed classes: 1 = active, 0 = inactive

molecule	label
O=C(NC(c1ccc(Cl)c(Cl)c1)c1nc(-c2ccccc2)no1)c1ccc(Cl)cc1 (centres undefined)	1
O=C(NC(c1nc(-c2ccccc2)no1)C1CCOCC1)c1ccc(Cl)c(Cl)c1 (centres undefined)	1
O=C(c1cccc(Cl)c1)N(CCO)C(c1ccc(Cl)c(Cl)c1)c1nc(-c2ccccc2)no1 (centres undefined)	0
O=C(NC(c1ccc(Cl)c(Cl)c1)c1nc(-c2ccccc2)no1)c1ccc(Cl)c(Cl)c1 (centres undefined)	1
O=C(NC(c1nc(-c2ccccc2)no1)C1CCCCC1)c1ccc(Cl)c(Cl)c1 (centres undefined)	1

Could you kindly confirm the outcome this assay logged for O=C(NC(c1ccc(Cl)cc1)c1nc(-c2ccccn2)no1)c1cccc(Cl)c1 (centres undefined) ?
1

And O=C(NC(c1ccccc1)c1nc(-c2ccccc2)no1)c1ccc(Cl)cc1 (centres undefined) ?
1

And Cc1ccc(C(=O)NC(c2ccccc2)c2nc(-c3ccccc3)no2)cc1 (centres undefined) ?
0

And O=C(NC(c1ccccc1)c1nc(-c2ccccc2)no1)c1cccc(Cl)n1 (centres undefined) ?
1

---

target: Sphingosine 1-phosphate receptor 3 (Homo sapiens); test: blockers of human S1PR3 signaling – cell-based, fluorescence, dose response, late-stage follow-up (AID 743434); details: S1P3-expressing cells, fluorescence antagonist assay
The source made the active and inactive calls. No rule for the calls is given here.
Respond using exactly one of the listed classes: active, inactive

Before answering, review these 3 worked examples.
compound	tested system	label
O=C(NC(c1ccc(Cl)cc1)c1nc(-c2ccccc2)no1)c1cccc(Cl)c1 (stereo not given)	Sphingosine 1-phosphate receptor 3 (Homo sapiens)	active
O=C(NC(c1ccc(Cl)cc1)c1nc(-c2cccc(Cl)c2)no1)c1cccc(Cl)c1 (stereo not given)	Sphingosine 1-phosphate receptor 3 (Homo sapiens)	active
O=C(NC(c1ccc(Cl)cc1)c1nc(-c2ccccc2)no1)c1ccc(Cl)c(Br)c1 (stereo not given)	Sphingosine 1-phosphate receptor 3 (Homo sapiens)	active

Could you kindly confirm the outcome this assay logged for N#Cc1ccc(C(=O)NC(c2ccc(Cl)c(Cl)c2)c2nc(-c3ccccc3)no2)cc1 (stereo not given) ?
active

And COc1ccc(C(=O)NC(c2ccccc2)c2nc(-c3ccccc3)no2)cc1 (stereo not given) ?
inactive
